# tgt: Human plasma kallikrein (Homo sapiens)
# Construct: yields a heavy chain (371 amino acids) and a light chain (248 amino acids)
# Sequence (P03952 391-638 limits assumed): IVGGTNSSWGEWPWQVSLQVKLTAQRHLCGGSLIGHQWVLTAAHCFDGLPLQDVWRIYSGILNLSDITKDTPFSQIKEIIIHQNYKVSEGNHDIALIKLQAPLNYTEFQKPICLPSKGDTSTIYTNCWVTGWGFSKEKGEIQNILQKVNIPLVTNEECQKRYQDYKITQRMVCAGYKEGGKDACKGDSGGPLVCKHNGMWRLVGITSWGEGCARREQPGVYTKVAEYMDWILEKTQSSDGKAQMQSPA
# Sequence (P03952 20-390 partner limits assumed): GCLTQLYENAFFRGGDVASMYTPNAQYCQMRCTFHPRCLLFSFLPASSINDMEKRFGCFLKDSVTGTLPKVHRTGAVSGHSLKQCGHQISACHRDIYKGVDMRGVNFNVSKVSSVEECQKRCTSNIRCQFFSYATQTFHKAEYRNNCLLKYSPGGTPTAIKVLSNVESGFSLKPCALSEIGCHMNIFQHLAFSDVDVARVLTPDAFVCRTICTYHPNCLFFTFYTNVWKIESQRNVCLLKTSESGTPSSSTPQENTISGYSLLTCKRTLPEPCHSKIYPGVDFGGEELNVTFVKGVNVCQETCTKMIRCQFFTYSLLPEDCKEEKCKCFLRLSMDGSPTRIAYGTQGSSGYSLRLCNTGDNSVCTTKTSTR
# experiment: Plasma Kallikrein Assay
# condition_notes: purified Human plasma kallikrein 0.5 nM, substrate Acetyl-K-P-R-AFC, pH 7.4
Field: label. Allowed values: yes (IC50 < 5 nM) or no (IC50 >= 5 nM).

>>> label("CN(C)C(=O)[C@@H]1CCCN1c1ccc(Cn2cc(NC(=O)c3cncc(-c4c(C(F)F)ccc(Cl)c4F)n3)cn2)cn1")
"no"
>>> label("C[C@H]1[C@@H](O)CCN1C[C@@H]1CCCN1c1ncc(Cn2cc(NC(=O)c3cncc(-c4c(C(F)F)ccc(Cl)c4F)n3)cn2)cn1")
"yes"
>>> label("O=C(Nc1cnn(Cc2cnc(N3CCC3)nc2)c1)c1nc(-c2c(C(F)F)ccc(Cl)c2F)cnc1O")
"no"
>>> label("O=C(Nc1cnn(C(CO)c2cnc(N3CC4CC4C3)nc2)c1)c1cncc(-c2c(C(F)F)ccc(Cl)c2F)n1 (single isomer, unassigned) [Example 45]")
"no"
>>> label("O=C(Nc1cnn(Cc2ccc(N3CC4C(C3)C4(F)F)nc2)c1)c1cncc(-c2c(C(F)F)ccc(Cl)c2F)n1 (stereo not shown)")
"no"
>>> label("CC(c1cnc(N2CCC2)nc1)n1cc(NC(=O)c2cncc(-c3c(OC(F)F)ccc(Cl)c3F)n2)cn1 (single isomer, unassigned) [Example 57]")
"no"
>>> label("O=C(Nc1cnn(Cc2cnc(N3CCC[C@H]3CN3CC[C@@H](O)C3)nc2)c1)c1cncc(-c2c(C(F)F)ccc(Cl)c2F)n1")
"yes"
>>> label("CC(c1cnc(N2CC3CC3C2)nc1)n1cc(NC(=O)c2nc(-c3c(C(F)F)ccc(Cl)c3F)cnc2N(C)C)cn1 (single isomer, unassigned)")
"no"
>>> label("CC(c1cnc(N2CC3(CC3)C2)nc1)n1cc(NC(=O)c2cncc(-c3c(C(F)F)ccc(Cl)c3F)n2)cn1 (single isomer, unassigned) [Example 93]")
"no"
>>> label("Cc1nc(Cn2cc(NC(=O)c3cncc(-c4c(C(F)F)ccc(Cl)c4F)n3)cn2)cnc1N1CCC1")
"no"
>>> label("CC(c1cnc(N2CC[C@H]2[C@@H](C)N2CC[C@H](O)[C@@H]2C)nc1)n1cc(NC(=O)c2cncc(-c3c(C(F)F)ccc(Cl)c3F)n2)cn1 (stereo partly shown)")
"yes"
>>> label("O=C(Nc1cnn(Cc2ccc(N3CCNC4(CC4)C3)nc2)c1)c1cncc(-c2c(C(F)F)ccc(Cl)c2F)n1")
"no"
>>> label("CC(c1cnc(N2CC[C@H]2CN2CC(O)(C3CC3)C2)nc1)n1cc(NC(=O)c2cncc(-c3c(C(F)F)ccc(Cl)c3F)n2)cn1 (stereo partly shown)")
"yes"
>>> label("Cc1nc(N2CCC2)ccc1Cn1cc(NC(=O)c2cncc(-c3c(C(F)F)ccc(Cl)c3F)n2)cn1")
"no"
>>> label("CC(c1cnc(N2Cc3ccncc3C2)nc1)n1cc(NC(=O)c2cncc(-c3c(C(F)F)ccc(Cl)c3F)n2)cn1 (stereo not shown)")
"no"
>>> label("CC(=O)N1CC[C@@H]2CN(c3ccc(Cn4cc(NC(=O)c5cncc(-c6c(C(F)F)ccc(Cl)c6F)n5)cn4)cn3)[C@@H]2C1")
"no"
>>> label("CC(c1cnc(N2CCC2)nc1)n1cc(NC(=O)c2cncc(-c3cc(Cl)ccc3-n3cnnn3)n2)cn1 (single isomer, unassigned) [Example 59]")
"yes"
>>> label("O=C(Nc1cnn(Cc2cnc(N3CCC3)nc2C2CC2)c1)c1cncc(-c2c(C(F)F)ccc(Cl)c2F)n1")
"no"
>>> label("CN(CC1CCCN1c1ncc(Cn2cc(NC(=O)c3cncc(-c4c(C(F)F)ccc(Cl)c4F)n3)cn2)cn1)CC1(O)CC1 (single isomer, unassigned) [Example 140]")
"yes"
>>> label("O=C(Nc1cnn(C2(c3cnc(N4CCC4)nc3)CC2)c1)c1cncc(-c2c(C(F)F)ccc(Cl)c2F)n1")
"no"
>>> label("O=C(Nc1cnn(Cc2ccc(N3CCC4OCCC43)nc2)c1)c1cncc(-c2c(C(F)F)ccc(Cl)c2F)n1 (stereo not shown) [Example 117]")
"no"
>>> label("CCc1ncc(-c2c(C(F)F)ccc(Cl)c2F)nc1C(=O)Nc1cnn(Cc2cnc(N3CCC3)nc2)c1")
"no"
>>> label("C[C@@H](c1cnc(N2C[C@@H]3C[C@@H]3[C@@H]2CO)nc1)n1cc(NC(=O)c2cncc(-c3c(C(F)F)ccc(Cl)c3F)n2)cn1 (single isomer, unassigned) [Example 71]")
"yes"
>>> label("CC(c1cnc(N2CC[C@H]2CN2CCC(O)CC2)nc1)n1cc(NC(=O)c2cncc(-c3c(C(F)F)ccc(Cl)c3F)n2)cn1 (stereo partly shown)")
"yes"
